- TARGET_UNDER_TEST: T138V ForT variant (Streptomyces kaniharaensis, UniProt A0A5S9CYM0, T138V)
- ASSAY_EXPLANATION: biochemical
RESULT_TYPE: Kd
Please format your answer as a value with the unit trailing.

Query (molecule): O=P(O)(O)OC[C@H]1O[C@H](OP(=O)(O)OP(=O)(O)O)[C@H](O)[C@@H]1O [PRPP, 5′-phosphoribose-1′-pyrophosphate] ; field requested: Kd
700 nM

###

- TARGET_UNDER_TEST: T138A ForT variant (Streptomyces kaniharaensis, UniProt A0A5S9CYM0, T138A)
- ASSAY_EXPLANATION: biochemical
RESULT_TYPE: Kd (µM)
A number alone suffices; assume µM.

Query (molecule): O=P(O)(O)OC[C@H]1O[C@H](OP(=O)(O)OP(=O)(O)O)[C@H](O)[C@@H]1O [PRPP, 5′-phosphoribose-1′-pyrophosphate] ; field requested: Kd
6.7
